These entries and their values trace back to patent US4621057A.

tested on: N-acetylhexosamine oxidase; test: Activity inhibition by metalic ion or inhibitor; type: biochemical, Pseudomonas sp. No. 15-1; settings: 1.8mM metalic ion or inhibitor; tris-hydrochloric acid buffer solution of pH 7.5
Here, each record is paired with measured Residual activity (%) data.

[
  {
    "molecule": "O=S(=O)([O-])[O-].[Cu+2]",
    "Residual activity (%)": 74
  },
  {
    "molecule": "c1cnc2c(c1)ccc1cccnc12",
    "Residual activity (%)": 81
  },
  {
    "molecule": "O=S(=O)([O-])[O-].[Mn+2]",
    "Residual activity (%)": 84
  },
  {
    "molecule": "CC(=O)[O-].CC(=O)[O-].[Pb+2]",
    "Residual activity (%)": 42
  },
  {
    "molecule": "CCCCCCCCCCCCOS(=O)(=O)[O-].[Na+] [SDS, Sodium dodecylsulfate]",
    "Residual activity (%)": 87
  },
  {
    "molecule": "O=S(=O)([O-])[O-].[Zn+2]",
    "Residual activity (%)": 2
  },
  {
    "molecule": "O=S(=O)([O-])[O-].[Cd+2]",
    "Residual activity (%)": 52
  },
  {
    "molecule": "O=S(=O)([O-])[O-].[Fe+2]",
    "Residual activity (%)": 15
  }
]

###

system: N-acetylhexosamine oxidase; experiment: Activity inhibition by metalic ion or inhibitor; type: biochemical, Pseudomonas sp. No. 15-1; conditions: 1.8mM metalic ion; tris-hydrochloric acid buffer solution of pH 7.5
result_type: inhibition of enzyme activity (in words)

[
  {
    "smiles_data": "O=S(=O)([O-])[O-].[Ni+2]",
    "measurement_target": "N-acetylhexosamine oxidase",
    "result_type": "inhibition of enzyme activity (in words)",
    "measured": "considerably"
  },
  {
    "smiles_data": "O=S(=O)([O-])[O-].[Cd+2]",
    "measurement_target": "N-acetylhexosamine oxidase",
    "result_type": "inhibition of enzyme activity (in words)",
    "measured": "considerably"
  },
  {
    "smiles_data": "O=S(=O)([O-])[O-].[Fe+2]",
    "measurement_target": "N-acetylhexosamine oxidase",
    "result_type": "inhibition of enzyme activity (in words)",
    "measured": "inhibited greatly"
  },
  {
    "smiles_data": "O=S(=O)([O-])[O-].[Zn+2]",
    "measurement_target": "N-acetylhexosamine oxidase",
    "result_type": "inhibition of enzyme activity (in words)",
    "measured": "inhibited greatly"
  },
  {
    "smiles_data": "CC(=O)[O-].CC(=O)[O-].[Pb+2]",
    "measurement_target": "N-acetylhexosamine oxidase",
    "result_type": "inhibition of enzyme activity (in words)",
    "measured": "considerably"
  }
]

###

tested on: N-acetylhexosamine oxidase; experiment: Activity inhibition by metalic ion or inhibitor; type: biochemical, Pseudomonas sp. No. 15-1; conditions: 1.8mM metalic ion or inhibitor; tris-hydrochloric acid buffer solution of pH 7.5

[
  {
    "compound": "O=C(O)c1cc[c]([Hg][Cl])cc1 [PCMB, pChloromercurybenzoate]",
    "measurement_target": "N-acetylhexosamine oxidase",
    "value_units": "%",
    "Residual activity (%)": 67
  },
  {
    "compound": "O=S(=O)([O-])[O-].[Ni+2]",
    "measurement_target": "N-acetylhexosamine oxidase",
    "value_units": "%",
    "Residual activity (%)": 64
  },
  {
    "compound": "[Ca+2].[Cl-].[Cl-]",
    "measurement_target": "N-acetylhexosamine oxidase",
    "value_units": "%",
    "Residual activity (%)": 91
  },
  {
    "compound": "NC(=O)CI",
    "measurement_target": "N-acetylhexosamine oxidase",
    "value_units": "%",
    "Residual activity (%)": 90
  },
  {
    "compound": "O=S(=O)([O-])[O-].[Co+2]",
    "measurement_target": "N-acetylhexosamine oxidase",
    "value_units": "%",
    "Residual activity (%)": 75
  },
  {
    "compound": "O=S(=O)([O-])[O-].[Mg+2]",
    "measurement_target": "N-acetylhexosamine oxidase",
    "value_units": "%",
    "Residual activity (%)": 86
  }
]
